# Test system: 292921-168-R-J2-PDC KRAS tumor spheroid viability
# test summary: Anticancer human tumor 292921-168-R-J2-PDC patient-derived pancreatic carcinoma cell line growth inhibition [KRAS2]
# condition notes: second compound 10 µM; first compound 0.0316 µM; stronger effect = lower value; spheroids with HUVEC and MSC
measurement name: viability, T/C (%)
Report only the number, with the unit % understood.

Example cases with answers are listed next.
CC(C)NCC(C(=O)N1CCN(c2ncnc3c2C(C)CC3O)CC1)c1ccc(Cl)cc1 (stereo unspecified) + COc1cc2nc(C)nc(NC(C)c3cc(N)cc(C(F)(F)F)c3)c2cc1OC1CCOC1 :: 20.3
COC(=O)c1ccc2c(C(=Nc3ccc(N(C)C(=O)CN4CCN(C)CC4)cc3)c3ccccc3)c(O)[nH]c2c1 + CC1OCC2(CCN(c3cnc(Sc4ccnc(N)c4Cl)c(N)n3)CC2)C1N :: 58.2
O=C(c1cc(Cc2n[nH]c(=O)c3ccccc23)ccc1F)N1CCN(C(=O)C2CC2)CC1 + COc1cc2nc(C)nc(NC(C)c3cc(N)cc(C(F)(F)F)c3)c2cc1OC1CCOC1 :: 83.8
CC1COCCN1c1cc(-c2ccnn2C)c2ccnc(-c3ccn[nH]3)c2n1 (stereo unspecified) + COc1cc2nc(C)nc(NC(C)c3cc(N)cc(C(F)(F)F)c3)c2cc1OC1CCOC1 :: 12.5
Cn1nccc1Nc1nccc(-c2cc3c(s2)C(C)(C)N(CCN2CCOCC2)C3=O)n1 + CC1OCC2(CCN(c3cnc(Sc4ccnc(N)c4Cl)c(N)n3)CC2)C1N :: 24.1

Then there is this compound:
**Q:** Which value of viability, T/C has been reported for CC1(C)CCC(CN2CCN(c3ccc(C(=O)NS(=O)(=O)c4ccc(NCC5CCOCC5)c([N+](=O)[O-])c4)c(Oc4cnc5[nH]ccc5c4)c3)CC2)=C(c2ccc(Cl)cc2)C1 + C=CC(=O)N1CCN(c2nc(=O)n(-c3c(C)ccnc3C(C)C)c3nc(-c4c(O)cccc4F)c(F)cc23)C(C)C1 in the records?
**A:** 28.4

* * *

viability, T/C values by entry
# Test system: 292921-168-R-J2-PDC KRAS tumor spheroid viability
# test summary: Anticancer human tumor 292921-168-R-J2-PDC cell line growth inhibition [KRAS2];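 note: drug exposure lasted seven days after spheroids formed for three days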;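 for viability, T/C: percent of DMSO vehicle control viability which is 100%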
# condition notes: second compound 10 µM; first compound 1 µM; stronger effect = lower value; spheroids with HUVEC and MSC
Report only the number, with the unit % understood.

Example cases with answers are listed next.
COc1cc2nccc(Oc3ccc(NC(=O)C4(C(=O)Nc5ccc(F)cc5)CC4)cc3)c2cc1OC + CNCc1ccccc1-c1csc(C(C)Nc2nc(C)nc3cc(OC)c(OC)cc23)c1 :: 0.08
CCN1CCN(Cc2ccc(Nc3ncc(F)c(-c4cc(F)c5nc(C)n(C(C)C)c5c4)n3)nc2)CC1 + C=CC(=O)N1CCN(c2nc(=O)n(-c3c(C)ccnc3C(C)C)c3nc(-c4c(O)cccc4F)c(F)cc23)C(C)C1 :: 6.06

Then there is this compound:
**Q:** Which value of viability, T/C has been reported for CCNC(=O)CC1N=C(c2ccc(Cl)cc2)c2cc(OC)ccc2-n2c(C)nnc21 (stereo not drawn) + C=CC(=O)N1CCN(c2nc(=O)n(-c3c(C)ccnc3C(C)C)c3nc(-c4c(O)cccc4F)c(F)cc23)C(C)C1 in the records?
**A:** 16.8

* * *

# Test system: 292921-168-R-J2-PDC KRAS tumor spheroid viability
# test summary: Anticancer human tumor 292921-168-R-J2-PDC cell line growth inhibition [KRAS2];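 note: drug exposure lasted seven days after spheroids formed for three days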
# condition notes: curve of first compound; second compound 1 µM; spheroids with HUVEC and MSC
pIC50: −log10 of the molar value.
Label No if pIC50 falls below 6; label Yes in every other case.

CC(C)NCC(C(=O)N1CCN(c2ncnc3c2C(C)CC3O)CC1)c1ccc(Cl)cc1 (stereo not drawn) + CNCc1ccccc1-c1csc(C(C)Nc2nc(C)nc3cc(OC)c(OC)cc23)c1 :: Yes
Cn1ncnc1[C@H]1c2n[nH]c(=O)c3cc(F)cc(c23)N[C@@H]1c1ccc(F)cc1 + CC1OCC2(CCN(c3cnc(Sc4ccnc(N)c4Cl)c(N)n3)CC2)C1N :: Yes
Cn1ncnc1[C@H]1c2n[nH]c(=O)c3cc(F)cc(c23)N[C@@H]1c1ccc(F)cc1 + C=CC(=O)N1CCN(c2nc(OCC3CCCN3C)nc3c2CCN(c2cccc4cccc(C)c24)C3)CC1CC#N :: Yes
CC1(C)CCC(CN2CCN(c3ccc(C(=O)NS(=O)(=O)c4ccc(NCC5CCOCC5)c([N+](=O)[O-])c4)c(Oc4cnc5[nH]ccc5c4)c3)CC2)=C(c2ccc(Cl)cc2)C1 + C=CC(=O)N1CCN(c2nc(OCC3CCCN3C)nc3c2CCN(c2cccc4cccc(C)c24)C3)CC1CC#N :: Yes
COc1cc(Nc2ncc3c(n2)-c2ccc(Cl)cc2C(c2c(F)cccc2OC)=NC3)ccc1C(=O)O + C=CC(=O)N1CCN(c2nc(=O)n(-c3c(C)ccnc3C(C)C)c3nc(-c4c(O)cccc4F)c(F)cc23)C(C)C1 :: Yes

**Q:** Test whether the compound CC(C)NCC(C(=O)N1CCN(c2ncnc3c2C(C)CC3O)CC1)c1ccc(Cl)cc1 (stereo not drawn) + COc1cc2nc(C)nc(NC(C)c3cc(N)cc(C(F)(F)F)c3)c2cc1OC1CCOC1 records pIC50 of 6 or higher.
**A:** No

**Q:** Test whether the compound CC1COCCN1c1cc(-c2ccnn2C)c2ccnc(-c3ccn[nH]3)c2n1 (stereo not drawn) + CC1OCC2(CCN(c3cnc(Sc4ccnc(N)c4Cl)c(N)n3)CC2)C1N records pIC50 of 6 or higher.
**A:** Yes

**Q:** Test whether the compound COc1cc2nccc(Oc3ccc(NC(=O)C4(C(=O)Nc5ccc(F)cc5)CC4)cc3)c2cc1OC + CNCc1ccccc1-c1csc(C(C)Nc2nc(C)nc3cc(OC)c(OC)cc23)c1 records pIC50 of 6 or higher.
**A:** Yes

**Q:** Test whether the compound CC(=O)Nc1cccc(-n2c(=O)n(C3CC3)c(=O)c3c(Nc4ccc(I)cc4F)n(C)c(=O)c(C)c32)c1 + CNCc1ccccc1-c1csc(C(C)Nc2nc(C)nc3cc(OC)c(OC)cc23)c1 records pIC50 of 6 or higher.
**A:** Yes

**Q:** Test whether the compound CC(C)NCC(C(=O)N1CCN(c2ncnc3c2C(C)CC3O)CC1)c1ccc(Cl)cc1 (stereo not drawn) + C=CC(=O)N1CCN(c2nc(OCC3CCCN3C)nc3c2CCN(c2cccc4cccc(C)c24)C3)CC1CC#N records pIC50 of 6 or higher.
**A:** Yes

**Q:** Test whether the compound CCNC(=O)CC1N=C(c2ccc(Cl)cc2)c2cc(OC)ccc2-n2c(C)nnc21 (stereo not drawn) + C=CC(=O)N1CCN(c2nc(=O)n(-c3c(C)ccnc3C(C)C)c3nc(-c4c(O)cccc4F)c(F)cc23)C(C)C1 records pIC50 of 6 or higher.
**A:** No
